tested.system: Genome polyprotein (dengue virus type 2, UniProt P29990)
Sequence (P29990 1346-1475 limits assumed): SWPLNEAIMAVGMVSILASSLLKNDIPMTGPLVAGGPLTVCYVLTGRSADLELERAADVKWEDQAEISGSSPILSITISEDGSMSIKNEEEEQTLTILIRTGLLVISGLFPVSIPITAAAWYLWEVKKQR
Sequence (P29990 1476-2093 limits assumed): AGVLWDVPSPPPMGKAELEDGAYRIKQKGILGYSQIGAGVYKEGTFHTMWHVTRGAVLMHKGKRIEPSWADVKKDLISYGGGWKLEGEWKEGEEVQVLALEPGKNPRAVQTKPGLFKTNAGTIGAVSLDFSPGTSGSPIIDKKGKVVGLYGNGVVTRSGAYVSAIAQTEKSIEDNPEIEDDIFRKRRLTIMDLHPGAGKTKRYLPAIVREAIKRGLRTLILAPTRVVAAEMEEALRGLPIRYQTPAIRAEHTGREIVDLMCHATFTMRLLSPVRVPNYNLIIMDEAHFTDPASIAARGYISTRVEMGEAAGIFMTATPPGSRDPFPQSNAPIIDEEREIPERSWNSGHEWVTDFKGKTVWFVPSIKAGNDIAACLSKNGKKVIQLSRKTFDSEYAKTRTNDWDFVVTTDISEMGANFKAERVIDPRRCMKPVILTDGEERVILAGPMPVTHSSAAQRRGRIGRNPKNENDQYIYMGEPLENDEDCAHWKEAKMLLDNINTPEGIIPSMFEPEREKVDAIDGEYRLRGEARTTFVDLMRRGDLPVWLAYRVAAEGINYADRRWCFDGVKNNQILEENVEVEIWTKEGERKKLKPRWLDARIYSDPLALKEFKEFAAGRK
Format: functional, Thailand/16681/1984
property.name: pIC50
Scale for pIC50: -log10 of concentration given in mol/L; no unit attached.

Recorded pIC50, per entry:
| given.smiles | tested.system | pIC50 |
| --- | --- | --- |
| O=C(O)c1cc(Cl)cc(F)c1NS(=O)(=O)c1ccc(Oc2ccccc2Cl)cc1 | Genome polyprotein (dengue virus type 2, UniProt P29990) | 4.73 |
| Cc1c(NC(=O)OCc2ccccc2)cc(C(=O)Nc2cccc(CN)c2)cc1C(F)(F)F | Genome polyprotein (dengue virus type 2, UniProt P29990) | 4.04 |

Consider the additional molecule presented here.
// field: pIC50; key: "NCc1cccc(NC(=O)[C@@H](NC(=O)OCc2ccccc2)c2cccc(Br)c2)c1" ; value = 4.07

###

// reported IC50 per item
tested.system: UniProtKB P29990
Type: functional, Thailand/16681/1984

Some molecules with recorded IC50:
| given.smiles | property.name | data.value |
| --- | --- | --- |
| O=C(NCC(F)F)[C@H](Nc1ncc2c(n1)CNC2)c1cc(Cl)cc(C2CC2)c1 | IC50 | > 99.5 µM |
| CCn1c(=O)c(N2C[C@H]3C[C@@]3(C(F)F)C2)nc2ccccc21 | IC50 | > 99.5 µM |
| CCc1[nH]c(-c2ccccc2)cc1C(=O)Nc1cccc(-c2nnn[nH]2)c1 | IC50 | > 99.5 µM |
| O=C(NCC(F)F)[C@H](Nc1ccc2c(c1)CNC2)c1cc(Cl)cc2ccoc12 | IC50 | > 99.5 µM |
| NCc1cccc(NC(=O)[C@H](NC(=O)OCc2ccccc2)C2CCN(C(=O)c3ccco3)CC2)c1 | IC50 | > 99.5 µM |

Entry "NCc1cccc(NC(=O)c2cc(N)cc(Cl)c2)c1" , tested on UniProtKB P29990, has a reported IC50 of > 99.5 µM

For "COc1ccc(NS(=O)(=O)c2ccc(Cl)cc2C(=O)O)cc1S(=O)(=O)N1CCCC1" on UniProtKB P29990, measured IC50 was > 99.5 µM

# lookup: "Cc1csc(COc2cccc([C@H](NC(=O)OCc3ccccc3)C(=O)Nc3cccc(CN)c3)c2)n1" on UniProtKB P29990, IC50 = 27.2 µM

Here "NCc1cc(NC(=O)c2cc(Cl)cc(NC(=O)OCc3ccccc3)c2)cc([C@@H]2C[C@H]2C(=O)O)c1" was tested on UniProtKB P29990, and its IC50 came to > 99.5 µM

Case "NCc1cccc(NC(=O)[C@@H](Cc2ccccc2)NC(=O)OCc2ccccc2)c1" , UniProtKB P29990, IC50 recorded as > 99.5 µM

Result for "O=C(Nc1cccc(-n2nn[nH]c2=O)c1)c1cc(Cl)cc(N2CCCC2=O)c1" , tested on UniProtKB P29990, IC50: > 99.5 µM

UniProtKB P29990 IC50 of "O=C(Nc1ccc2c(c1)CNC2)c1cc(C(F)(F)F)nc2[nH]ccc12" is > 99.5 µM

###

tested.system: Genome polyprotein (dengue virus type 2)
Type: functional, Thailand/16681/1984
pIC50: −log10 of the molar value.
List of pIC50 values.

Would you please look over these solved cases?
| given.smiles | pIC50 |
| --- | --- |
| Cc1nc(C2(NC(=O)c3cccc4c3CC(=O)N4)CCC2)no1 | < 4.00 |
| COCCNC(=O)[C@H](Nc1cccc(-c2nn[nH]n2)c1)c1cc(Cl)cc(NC(=O)OCc2ccccc2)c1 | 4.55 |
| Cc1c(C(=O)Nc2cc(C3CCOCC3)ccn2)cc(C2CC2)n1C | < 4.00 |
| O=C(O)c1ccc2nc(Cc3c[nH]c4ccc(Cl)cc34)cn2c1 | < 4.00 |
| NCc1cccc(NC(=O)[C@@H](NC(=O)OCc2ccccc2)c2ccc(OC[C@H]3CCS(=O)(=O)C3)cc2)c1 | < 4.00 |

// "COCC=Cc1cccc([C@@H](NC(=O)OCc2ccccc2)C(=O)Nc2cccc(CN)c2)c1" : pIC50 value = < 4.00

The recorded pIC50 for entry "CCc1cnc2c(NC(=O)c3cccc4c3CC(=O)N4)cnn2c1" equals < 4.00

Sample "C[C@]1(OCCCO)C(=O)Nc2cc(F)cc(C(=O)Nc3ccc4c(c3)CNC4)c21" ; pIC50 observed: < 4.00

Lab note: "Clc1ccc2[nH]cc(Cc3cccc(-c4nn[nH]n4)c3)c2c1" gave pIC50 of 4.65
